protocol.description: Cytotoxicity, MTT assay, IAFp2
Type: cell-based
conditions.used: human, IAFp2 cells (human fibroblast cell line), read-out: IAFp2 Cytotox (IC50)
measured.quantity: IC50

IN: Return value of IC50 for input CC(=O)N[C@H]1CSSC[C@@H](C(N)=O)NC(=O)[C@H](C(C)C)NC(=O)CNC(=O)[C@H](Cc2c[nH]cn2)NC1=O [N—Ac—CHGVC—NH2, reference compound] , no commentary.
OUT: > 100 µM

---

Tested on: PC-3
protocol.description: Cytotoxicity, MTT assay, PC-3
Assay type: cell-based, human
pIC50: −log10 of the molar value. Positions of bridges follow the written chain, without caps; N, C: chain ends. Residues, ends and D or L forms follow the SMILES beside them.
measured.quantity: pIC50

IN: Return value of pIC50 for input CC(=O)N[C@H]1CSSC[C@@H](C(N)=O)NC(=O)[C@H](CO)NC(=O)[C@H](CO)NC(=O)[C@H](C(C)C)NC(=O)[C@H](C)NC(=O)[C@H](Cc2c[nH]cn2)NC(=O)[C@H](CO)NC1=O (Ac-CSHAVSSC-NH2; disulfide 1-8 (inferred)) , no commentary.
OUT: < 4.00

IN: Return value of pIC50 for input CC(C)[C@@H]1NC(=O)CNC(=O)[C@H](Cc2c[nH]cn2)NC(=O)[C@H](C)NC(=O)[C@@H](N)CSSC[C@@H](C(N)=O)NC(=O)[C@H](CC(=O)O)NC1=O [H—CAHGVDC—NH2] (H-CAHGVDC-NH2; disulfide 1-7) , no commentary.
OUT: < 4.00
